Target: recombinant human enteropeptidase (Homo sapiens (Human), UniProt P98073)
Sequence (P98073 whole entry): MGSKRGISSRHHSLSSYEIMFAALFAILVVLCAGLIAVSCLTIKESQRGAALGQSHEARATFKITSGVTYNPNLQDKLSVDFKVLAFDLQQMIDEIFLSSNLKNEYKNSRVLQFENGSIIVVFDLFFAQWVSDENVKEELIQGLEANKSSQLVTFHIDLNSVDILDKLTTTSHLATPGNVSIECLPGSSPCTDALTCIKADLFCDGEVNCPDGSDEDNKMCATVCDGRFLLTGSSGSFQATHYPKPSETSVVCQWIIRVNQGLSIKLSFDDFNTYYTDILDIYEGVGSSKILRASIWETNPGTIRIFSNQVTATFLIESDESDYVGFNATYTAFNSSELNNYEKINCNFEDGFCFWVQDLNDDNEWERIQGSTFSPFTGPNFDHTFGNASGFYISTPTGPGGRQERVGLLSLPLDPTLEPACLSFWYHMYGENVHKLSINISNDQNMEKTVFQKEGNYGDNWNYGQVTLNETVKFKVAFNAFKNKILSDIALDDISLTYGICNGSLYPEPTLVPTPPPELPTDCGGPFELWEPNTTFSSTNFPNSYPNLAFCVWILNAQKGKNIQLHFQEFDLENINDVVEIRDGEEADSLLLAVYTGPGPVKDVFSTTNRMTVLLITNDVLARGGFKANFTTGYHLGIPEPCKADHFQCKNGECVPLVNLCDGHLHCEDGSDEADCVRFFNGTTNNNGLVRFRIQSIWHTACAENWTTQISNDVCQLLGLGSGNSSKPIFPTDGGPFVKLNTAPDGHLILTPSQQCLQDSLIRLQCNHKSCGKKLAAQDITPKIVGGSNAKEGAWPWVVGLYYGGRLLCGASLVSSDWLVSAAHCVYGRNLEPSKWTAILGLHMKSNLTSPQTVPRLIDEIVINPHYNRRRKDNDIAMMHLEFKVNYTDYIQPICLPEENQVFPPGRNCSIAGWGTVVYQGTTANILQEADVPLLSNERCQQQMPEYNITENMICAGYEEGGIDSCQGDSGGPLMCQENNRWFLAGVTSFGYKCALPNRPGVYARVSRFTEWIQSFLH
Assay: Measurement of enteropeptidase inhibitory activity
Settings: substrate Gly-Asp-Asp-Asp-Asp-Lys-β-Naphtylamide, Tris-HCl pH 8.0, Dixon plot
pKi: −log10 of the molar value. Counter-ions that a name gives are not always drawn.
Mark no (0) for pKi values under 9, and yes (1) for everything at or above.

# check: pKi of CC[C@H](C)[C@@H](CC(=O)O)NC(=O)C(CC)(CC)Cc1ccc(C(=O)Oc2ccc(C(=N)N)cc2F)s1 [Compound 49, hydrochloride] is greater than or equal to 9
no (0)

Follow-up item: CC(C)(Cc1ccc(C(=O)Oc2ccc(C(=N)N)cc2F)s1)C(=O)Nc1cc(C(=O)O)cc(C(=O)O)c1
yes (1)

Follow-up item: CCCN(CC(=O)O)C(=O)C(CC)(CC)Cc1ccc(C(=O)Oc2ccc(C(=N)N)cc2F)s1
no (0)

Follow-up item: CCC(CC)(Cc1ccc(C(=O)Oc2ccc(C(=N)N)cc2F)s1)C(=O)N[C@@H](CO)C(=O)O [Compound 11, hydrochloride]
yes (1)

Further cases:
# check: pKi of CCCN(CC(=O)O)C(=O)C(C)(C)Cc1ccc(C(=O)Oc2ccc(C(=N)N)cc2F)s1 [Compound 10, hydrochloride] is greater than or equal to 9
yes (1)

Follow-up item: CC(C)(Cc1ccc(C(=O)Oc2ccc(C(=N)N)cc2F)s1)C(=O)Nc1cccnc1
no (0)

====

A set of compounds tested on human trypsin (Homo sapiens, UniProt P07477), with measured Ki:
Structures can show the parent of a compound that is named as a salt.
Numbers only, in nM.

The cases that follow already have their Ki on record.
API: value(readout=Ki, system=human trypsin (Homo sapiens, UniProt P07477)) for record CC(C)(Cc1ccc(C(=O)Oc2ccc(C(=N)N)cc2F)s1)C(=O)N[C@@H](C(=O)O)c1ccc(O)cc1 [Compound 69]
1.14

Follow-up item: C=CCN(CC(=O)O)C(=O)C(C)(C)Cc1ccc(C(=O)Oc2ccc(C(=N)N)cc2F)s1 [Compound 5]
0.5

Follow-up item: CCC(CC)(Cc1ccc(C(=O)Oc2ccc(C(=N)N)cc2F)s1)C(=O)N1CCC[C@H]1C(=O)O [Compound 17]
6.38

Hey, can you go through the list below and give me Ki for every item?
1. N=C(N)c1ccc(OC(=O)c2ccc(CC3(C(=O)N[C@@H](CC(=O)O)C(=O)O)CCCC3)s2)c(F)c1 [Compound 2, trifluoroacetic acid salt]
2. CC(C)(Cc1ccc(C(=O)Oc2ccc(C(=N)N)cc2F)s1)C(=O)Nc1cc(C(=O)O)ccc1C(=O)O [Compound 75]

[4.1, 3.72]

Hey, can you go through the list below and give me Ki for every item?
1. CCC(CC)(Cc1ccc(C(=O)Oc2ccc(C(=N)N)cc2F)s1)C(=O)Nc1cc(C(=O)O)cc(C(=O)O)c1 [Compound 66]
2. N=C(N)c1ccc(OC(=O)c2ccc(CC3(C(=O)N[C@@H](CC(=O)O)C(=O)O)CCC3)s2)c(F)c1 [Compound 1, trifluoroacetic acid salt]
3. CC(C)(Cc1ccc(C(=O)Oc2ccc(C(=N)N)cc2F)s1)C(=O)N1CC(C(=O)O)C1 [Compound 72]
4. CCC(CC)(Cc1ccc(C(=O)Oc2ccc(C(=N)N)cc2F)s1)C(=O)N[C@@H](CO)C(=O)O [Compound 11, hydrochloride]
5. CC(C)(Cc1ccc(C(=O)Oc2ccc(C(=N)N)cc2F)s1)C(=O)N1CCc2ccc(C(=O)O)cc2C1 [Compound 50]

1. 1.58
2. 0.61
3. 1.85
4. 1.87
5. 3.49
